# Test system: Saccharomyces cerevisiae;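 also: PSI is a weighted mean of sequencing reads over stability bins, variants kept only with over 10 reads, mCherry proximal and sfGFP distal, peptide attached via GGGS linker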
# assay-name: protein stability index of tFT-peptide fusion (C-terminal peptide) (PSI (0-1 scale)); higher = more stable (slower turnover)
# measurement-context: genetic background: wild type; temperature: 30 C
endpoint-label: protein stability index
Response field accepts a number only; no unit should be typed.

Return value of protein stability index for input PPLPRPHHPYRR , no commentary.
0.708

Name the recorded protein stability index of the sequence listed here: EIKKKNPSTTRR
0.663

Identify measured protein stability index associated with LSILVGDREGSV
0.753

Name the recorded protein stability index of the item IEGEVRKIGNPT in your answer.
0.681

Query protein stability index for SFCHWRFSFPKC
0.666

Supply protein stability index value. Item: LITCHSHKPQQI
0.704

Provide measured protein stability index value, entry: CLCVLVSFFFGL
0.288

Annotate the sequence SILRLRSVVPAE with its measured protein stability index.
0.646

Could you please provide reported protein stability index for LTFGAPGACGLG ? Thanks!
0.719

Check the records and state protein stability index for CALLLLSVRAGQ
0.474

Tell me measured protein stability index for PVFLQRVIPRSR please.
0.678

# return recorded protein stability index for entry AQSPRFPYRNYH
0.693

Look up protein stability index of RFVLVFLVSLII and report it.
0.435

Give recorded protein stability index. VYYRRFTGGGLY
0.583

Fill in protein stability index for record PPRPTPLPHAPP
0.681

Given the sequence SGFLLVLRRPRE , write its reported protein stability index.
0.655

Check the records and state protein stability index for DMYLPSSSHPPP
0.712

Output measured protein stability index for this item: RGPSGARRQPGL
0.666

Output measured protein stability index for this item: GGGACRVCGCEV
0.648

Recall and state the measured protein stability index for PPPPPLPRSSLS .
0.697

Annotate the sequence NSPPPPRLRSSL with its measured protein stability index.
0.694

Hello, please tell me recorded protein stability index for this one: PPVRLLPCVCHF
0.708

Specify protein stability index for PAVFPSLENVAL and stop.
0.732

Report measured protein stability index; entry is TLDTICNTTKQR
0.675

Determine its reported protein stability index: SGDGGVGHWVGG
0.676

Please give the documented protein stability index of FVPQPFTPPSSF
0.685

Output measured protein stability index for this item: LFSSLNLFSSRD
0.735

# return recorded protein stability index for entry KKEKGKKEKEKR
0.668

Note protein stability index for the sequence shown: PRPGQPFSRFRF
0.672

Specify reported protein stability index for the sequence shown: TLRILTRRGLVP
0.703

State its protein stability index: LQSGALEHLGAS
0.716

Please supply the value of reported protein stability index for the item SVSLVQRSVCLD
0.71

Give protein stability index for HSDRPSPTRPQP
0.643

Complete the entry with protein stability index for FPPAHPVHFSPP
0.717

Item LFLSIFFFHLLF : provide protein stability index
0.37

For the sequence MLRRSGEGVRLE , give its measured protein stability index value.
0.722

Could you please provide reported protein stability index for LTGFYFFFDMTL ? Thanks!
0.637

Give me measured protein stability index, please, for this sequence: PPPGPSPPPSPH
0.683

Consider the sequence ACWVAKTGGSPV . State its measured protein stability index.
0.654

Respond only with protein stability index recorded for GPLRPTPAPNRT
0.644

Note down protein stability index recorded for AGESLRAIAVLY
0.42

Hello, please tell me recorded protein stability index for this one: LILEKHEMIGRR
0.681

Answer with the recorded protein stability index for the sequence listed here: DVLVHETFLCRL
0.774

Give reported protein stability index value for HHQVVPDVSLVS
0.659

Answer with the recorded protein stability index of RSSLYLDVVLSF only.
0.709

Indicate the recorded protein stability index value for this sequence: ERVQTRTTANRD
0.639

Entry PLGPLLSPLSPP needs its protein stability index filled in; supply it.
0.743

Give the measured protein stability index for AACGELLKYSLS
0.576

Specify measured protein stability index for GVVRSAPEAASL .
0.573

Output measured protein stability index for this item: PPLAPPPPPRPP
0.6

Report measured protein stability index; entry is VRGVGGLWGGAV
0.785

Give a short answer stating reported protein stability index for PFFPSSFALLRS .
0.717

Specify reported protein stability index for the sequence shown: VEESNQILERQS
0.671

Note protein stability index for the sequence shown: QFVLLFRSSGLR
0.71

Please give the documented protein stability index of PLPQVLYPPPPS
0.691

Note down protein stability index recorded for SGAPAQLSLSSL
0.657

Specify measured protein stability index for GGVWLSVVSWVG .
0.167

Dear colleague, please send me the reported protein stability index for RATERIVNIKGK when you can.
0.633

Return reported protein stability index. Input sequence: VVGRWRVCNVGL
0.626

In one line, give reported protein stability index of the entry GRWGGRLSWAPG .
0.628

State its protein stability index for this sequence: RRLRPQTVAFLS
0.231

Dear colleague, please send me the reported protein stability index for GLFLYCCLVSLL when you can.
0.283

Give a short answer stating reported protein stability index for ISHLQCFFVVML .
0.489

For the sequence RGAKKMNHRGRS , give its measured protein stability index value.
0.675

// Input: LLCGVLGLAWVW . Output its protein stability index only.
0.553

Please give measured protein stability index of the following entry: AISCPFIRFSSL
0.614

Using the record for ITTLRSLWVVGL , state its measured protein stability index.
0.609

Please report the measured protein stability index for SEILFRSSPFPI
0.721

Fill in protein stability index for record RWIWTRESTFSN
0.705

Quote protein stability index reported for PPPLATPTPTRP please.
0.688

Output measured protein stability index for this item: KKKNIYKVMKLE
0.403

Given the sequence IKSKKKKKRNKR , write its reported protein stability index.
0.638

Item VFCSLAWFGLLL : provide protein stability index
0.598

Write down protein stability index measured for item SWFTHTQSVRCS
0.515

Tell me its protein stability index given VVSRTCVRWGLV as the entry.
0.655

Find the measured protein stability index of SPCPPPPPSPPS and report it.
0.664
